# reported hERG current change (%, negative = inhibition) at 10uM; entries follow
target: human ether-à-go-go-related gene (hERG) potassium channel (human); experiment: primary screen, population patch clamp on CHO cells stably expressing hERG; higher = less effect of the substance;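 also: peak tail current of the secondary pulse compared with the same well before compound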
Sequence (Q12809 whole entry, looked up): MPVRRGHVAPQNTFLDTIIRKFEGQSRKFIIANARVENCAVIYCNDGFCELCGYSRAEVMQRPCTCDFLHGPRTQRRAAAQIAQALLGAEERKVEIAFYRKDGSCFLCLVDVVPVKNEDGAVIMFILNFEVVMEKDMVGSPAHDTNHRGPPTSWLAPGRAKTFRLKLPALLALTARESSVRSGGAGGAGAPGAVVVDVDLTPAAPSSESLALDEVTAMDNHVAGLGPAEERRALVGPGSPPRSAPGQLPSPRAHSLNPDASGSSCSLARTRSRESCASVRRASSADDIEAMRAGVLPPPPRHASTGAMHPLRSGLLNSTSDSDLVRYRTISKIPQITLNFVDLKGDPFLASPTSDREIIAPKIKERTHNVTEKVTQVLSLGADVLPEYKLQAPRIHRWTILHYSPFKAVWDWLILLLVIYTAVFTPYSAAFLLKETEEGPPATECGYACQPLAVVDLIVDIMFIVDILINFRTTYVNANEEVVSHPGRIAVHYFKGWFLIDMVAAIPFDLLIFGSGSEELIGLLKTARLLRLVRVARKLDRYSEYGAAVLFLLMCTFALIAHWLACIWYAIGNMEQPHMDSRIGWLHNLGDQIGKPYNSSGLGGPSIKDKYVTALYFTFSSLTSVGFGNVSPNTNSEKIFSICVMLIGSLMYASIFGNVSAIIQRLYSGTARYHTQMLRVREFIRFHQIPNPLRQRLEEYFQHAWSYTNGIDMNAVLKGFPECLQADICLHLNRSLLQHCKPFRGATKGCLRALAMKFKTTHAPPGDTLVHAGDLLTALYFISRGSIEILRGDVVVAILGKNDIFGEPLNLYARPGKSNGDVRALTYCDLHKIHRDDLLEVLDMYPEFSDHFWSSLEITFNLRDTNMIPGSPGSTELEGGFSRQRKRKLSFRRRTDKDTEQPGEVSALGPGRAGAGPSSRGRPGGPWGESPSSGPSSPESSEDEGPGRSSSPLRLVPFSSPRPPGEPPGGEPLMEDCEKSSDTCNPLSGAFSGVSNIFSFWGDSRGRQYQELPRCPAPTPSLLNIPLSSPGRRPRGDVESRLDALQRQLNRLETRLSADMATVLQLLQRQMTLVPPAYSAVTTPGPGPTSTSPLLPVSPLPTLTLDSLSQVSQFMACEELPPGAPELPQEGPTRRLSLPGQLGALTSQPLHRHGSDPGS
Among all 310,000 compounds or so, about 14,000 (4.5%) showed an effect of 50% or more. Effects have a minus sign here. Only a selection was taken, and strong results are over-represented in it overall.
Value type: hERG current change (%, negative = inhibition) at 10uM (%)

INSERT INTO results (molecule, test_target, reading_unit, val) VALUES
  ('Cc1ccc(C(=O)NCC(c2ccco2)N2CCc3ccccc32)cc1C (centres unmarked)', 'human ether-à-go-go-related gene (hERG) potassium channel (human)', '%', -60.1),
  ('O=C(NCC(c1ccco1)N1CCc2ccccc21)c1ccccc1 (centres unmarked)', 'human ether-à-go-go-related gene (hERG) potassium channel (human)', '%', -3.78),
  ('O=C(NCC(c1ccco1)N1CCc2ccccc21)c1ccccc1Cl (centres unmarked)', 'human ether-à-go-go-related gene (hERG) potassium channel (human)', '%', -60.2),
  ('Cc1ccc(C(=O)NCC(c2ccco2)N2CCc3ccccc32)cc1 (centres unmarked)', 'human ether-à-go-go-related gene (hERG) potassium channel (human)', '%', -13),
  ('COc1ccc(CCC(=O)NCC(c2ccco2)N2CCc3ccccc32)cc1 (centres unmarked)', 'human ether-à-go-go-related gene (hERG) potassium channel (human)', '%', -44.2);
